assay text: protein stability index of a GFP-peptide fusion (yeast GPS) (PSI 1-4); higher = more stable; sorted into four equal gates, so the index is relative within each strain
measurement conditions: ubr1∆
Record y whenever protein stability index is at 3 or higher; record n when lower.

Answered examples (5):
sequence chain	label class
LPLPPSVEWMKVSPSMC [SIN4]	n
LRRASATVPSAPYRKQI [YAR002W/NUP60]	n
GNNTELTKTTVNISAVD [YCG1]	y
ENGIEVELLDSNDRVNP [ITC1]	y
YVQVRQPIFVAHTAGRY [RPS5]	n

Answer whether protein stability index of LKCAERQLTSMEFSNLY [NUT1] is greater than or equal to 3.
n

Can you check LTSGLLYSYLIKENFFE [YJL039C/NUP192] next?
n

# iterate: PKNSSSPVQIAFNRFMA [SSN8]
n

Now consider RIKLATTSERVSNENKK [RRI1] and answer again.
y

Queued: AADILCELQVETYGSME [RPN5]
y

Origin of the recorded values: the supplement of paper PMC9732359
